experiment: HeLa cell cytotoxicity, dose response, cytotoxicity control, ATP luminescence, cherry-pick samples (AID 687004); settings: HeLa viability, ATP luminescence (CellTiter-Glo), 48 h; series mostly up to 26 µM
Potency and affinity values are given separately. Activity calls are given as the source filed them.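 The calls were made as follows: active = a fitted half-maximal concentration no higher than twice the top valid tested dose, with signal falling as cells die; inconclusive = flat curve between -70% and -30%, or poor fit; inactive = the rest, including signal rising instead of falling.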
assayReadout: activity change, negative = cytotoxicity

Form field: reported activity change, negative = cytotoxicity of Fc1cccc(CCN2C(=S)NC[C@@H]2Cc2ccccc2)c1
inactive

Form field: reported activity change, negative = cytotoxicity of CCOc1cc(/C=N/NC(=O)CCCC(=O)NC2CCCCC2)ccc1O
inactive

Form field: reported activity change, negative = cytotoxicity of CN1c2ccc(Br)cc2[C@@H]2[C@@H](CCN2C(=O)Cc2cccnc2)[C@@H]1CO
inactive
